The reported numbers originate from a melting point compilation (Tetko et al.; mined from patent text by program, amines drawn as free bases though some values may be those of a salt).

recorded-metric: melting point

Known melting point results, listed for orientation:
Challenge: Reported melting point, molecule CCCON=C(C(=O)OCC)c1csc(N)n1 : ____
Response given: 142 to 144 °C

Challenge: Reported melting point, molecule CCCCC(Cc1ccc(OCCNC(=O)c2ccc(-c3ccc(C(=O)OC)cc3)cc2)cc1)C(=O)OCC (centres undefined) : ____
Response given: 93 to 95 °C

Challenge: Reported melting point, molecule CCOC(=O)c1cn(C)c2cnc3cc(F)c(N4CCC[C@H]4CNc4ccccc4)cc3c2c1=O : ____
Response given: 170 °C

Challenge: Reported melting point, molecule Cc1cccc(C(=O)NO)c1N(C)S(=O)(=O)c1ccc(OCCCCNC(=O)c2ccc3c(c2)OCO3)cc1 : ____
Response given: 117 to 121 °C

Challenge: Reported melting point, molecule O=C(O)c1cc(CCNS(=O)(=O)c2ccccc2)c2cccccc1-2 : ____
Response given: 193 to 195 °C

Challenge: Reported melting point, molecule COC(=O)c1c(-c2ccc(Cl)cc2)c2cc(OCc3ccccc3)ccc2c(=O)n1CC(C)C : ____
Response given: 166 °C

Challenge: Reported melting point, molecule Cc1cc(C(=O)N2Cc3cccn3Cc3ccccc32)ccc1C1=CC(C)(C)CC(C)(C)C1 : ____
Response given: 118 to 120 °C

Challenge: Reported melting point, molecule CCCCc1ncc(C=C2C(=O)Nc3ccccc32)n1Cc1ccc(C(=O)OCC)cc1 : ____
Response given: 169 to 171 °C

Challenge: Reported melting point, molecule Cc1cc(SCc2ccc(OCc3ccc(F)cc3F)cc2)ccc1OCC(=O)O : ____
Response given: 139 to 141 °C

Challenge: Reported melting point, molecule Nc1csc(-c2cc3c(Oc4ccc(Cl)cc4)cncc3s2)n1 : ____
Response given: 168 to 170 °C

Further cases:
Challenge: Reported melting point, molecule CC(Oc1ccc(S(C)(=O)=O)cc1)c1ccnc2ncnn12 (centres undefined) : ____
Response given: 163 to 164 °C

Challenge: Reported melting point, molecule Cc1cc(=O)c(OCc2ccccc2)c(CO)o1 : ____
Response given: 115 to 116 °C

Challenge: Reported melting point, molecule CC(S)C(Cc1ccccc1)C(=O)Nc1cccc(C(=O)O)c1 (centres undefined) : ____
Response given: 192 to 196 °C

Challenge: Reported melting point, molecule Cc1ncc([N+](=O)[O-])n1CCN=[N+]=[N-] : ____
Response given: 51 to 51.5 °C

Challenge: Reported melting point, molecule CC(=O)C(=NNc1cccc(Cl)c1)Sc1ccc(Cl)cc1 : ____
Response given: 128 to 131 °C

Challenge: Reported melting point, molecule O=C(O)C(O)c1ccc2ccccc2c1 (racemic) : ____
Response given: 164 to 166 °C

Challenge: Reported melting point, molecule CC(C)(C)OC(=O)[C@H](COC(=O)N(N)c1ccc(CC(=O)O)cc1)C(=O)OC(c1ccccc1)c1ccccc1 : ____
Response given: 165 to 166 °C

Challenge: Reported melting point, molecule COC(=O)C(CCSC)NC(=O)c1ccc([N+](=O)[O-])cc1-c1ccccc1 (centres undefined) : ____
Response given: 98 to 101 °C

Challenge: Reported melting point, molecule CN(C)C1=C(c2cccc(C(F)(F)F)c2)C(=O)OC1 : ____
Response given: 110 °C

Challenge: Reported melting point, molecule COc1cc2c(c3c1OC(C)(C)C3)C(c1cccc(NS(=O)(=O)N(C)C)c1)=NC(C)(C)C2 : ____
Response given: 134 to 136 °C

Challenge: Reported melting point, molecule COC(=O)c1c(Cl)cc(Cl)cc1NC(=O)CSc1cccc(OC)c1 : ____
Response given: 89 to 90 °C

Challenge: Reported melting point, molecule Nc1ccc(S(=O)(=O)Nc2nnc(S(N)(=O)=O)s2)cc1 : ____
Response given: 241 to 242 °C

Challenge: Reported melting point, molecule COC(=O)c1cncn1C1c2ccccc2CCC1(C)C (centres undefined) : ____
Response given: 66 to 67.5 °C

Challenge: Reported melting point, molecule COc1ccc(CCC(O)=S)cc1[N+](=O)[O-] : ____
Response given: 130 to 132 °C
